Numbers sourced from patent EP4782453A1.

test system: MV-4-11 (carrying MLL-AF4); experiment: Inhibition of proliferation of human tumor cells (Alamar Blue, 7 days), MV-4-11; assay type: cell-based; conditions: Homo sapiens, MV4-11, 168 h, MV-4-11 cells (carrying MLL-AF4), method calls the value GI50
readout.type: IC50 (nM)

Solved cases (3 shown):
{"columns": ["compound", "IC50 (nM)"],
 "data": [
  ["CCNC(=O)N1CCC(CN2CC(c3cc(-c4ccc(F)cc4C(=O)N(CC)C(C)C)c4cnc(C)n4c3)C2)CC1 [Example 290]", 5.2],
  ["CCS(=O)(=O)N[C@H]1CC[C@H](CN2CC(c3cc(-c4ccc(F)cc4C(=O)N4CCOC[C@H]4C)c4cnc(C)n4c3)C2)CC1 [Example 134]", 26],
  ["Cc1nc(F)c2c(-c3ccc(F)cc3C(=O)N3CCOC[C@H]3C)cc(C3CN([C@@H](CC[C@H]4CNCCO4)C(C)C)C3)cn12 [Example 244-2]", 54]
]}

(A) COC(=O)N1CCC(CN2CC(c3cc(-c4ccc(F)cc4C(=O)N4CCOC[C@H]4C)c4c(F)nc(C)n4c3)C2)CC1 [Example 259]
(B) CCNC(=O)N1CCC([C@H](C)N2CC(c3cc(-c4ccc(F)cc4C(=O)N4CCOC[C@H]4C)c4c(F)nc(C)n4c3)C2)CC1 [Example 279]
(C) Cc1nc(F)c2c(-c3ccc(F)cc3C(=O)N3CCOC[C@H]3C)cc(C3CN([C@H](CC[C@@H]4CNCCO4)C(C)C)C3)cn12 [Example 245-1]
Q: Let's sort these by IC50, smallest first. Go ahead? Your answer should be the labels, listed in the requested order.
Ans: B, C, A

----------
Target: Menin-MLL (Homo sapiens)
Construct: His-Menin (M1-L615 end); purchased BIORTUS BP9210
Sequence (O00255 1-615 isoform O00255-1): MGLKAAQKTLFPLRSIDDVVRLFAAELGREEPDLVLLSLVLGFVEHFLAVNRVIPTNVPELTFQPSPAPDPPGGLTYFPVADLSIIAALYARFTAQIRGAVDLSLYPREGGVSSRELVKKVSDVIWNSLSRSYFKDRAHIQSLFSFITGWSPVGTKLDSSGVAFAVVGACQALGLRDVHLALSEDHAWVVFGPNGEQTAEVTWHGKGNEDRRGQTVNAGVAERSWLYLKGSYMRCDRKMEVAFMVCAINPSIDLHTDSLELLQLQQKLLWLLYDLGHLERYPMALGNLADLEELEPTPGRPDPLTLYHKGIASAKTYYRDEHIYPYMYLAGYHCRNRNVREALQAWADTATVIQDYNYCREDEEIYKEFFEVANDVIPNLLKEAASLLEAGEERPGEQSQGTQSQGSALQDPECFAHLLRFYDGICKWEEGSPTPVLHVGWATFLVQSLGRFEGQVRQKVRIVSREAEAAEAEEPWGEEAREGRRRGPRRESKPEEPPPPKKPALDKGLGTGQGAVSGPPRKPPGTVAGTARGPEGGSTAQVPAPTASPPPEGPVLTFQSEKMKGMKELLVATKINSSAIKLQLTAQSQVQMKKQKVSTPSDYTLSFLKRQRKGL
Experiment: Inhibitory activity against Menin-MLL binding (fluorescence polarization)
Conditions: fluorescence polarization; 150 nM His-Menin, 15 nM FITC-MLL; 25°C for 60 min; read-out: Menin-MLL IC50
readout.type: IC50 (nM)

Solved cases (3 shown):
{"columns": ["compound", "IC50 (nM)"],
 "data": [
  ["Cc1cncc2c(-c3ccc(F)cc3C(=O)N3[C@H](C)COC[C@H]3C)cc(CC3CN(CC4CCOCC4)C3)n12", 2],
  ["Cc1nc(F)c2c(-c3ccc(F)cc3C(=O)N3CCOC[C@H]3C)cc(C3CN([C@H](CCCN4CCOCC4)C(C)C)C3)cn12", 26],
  ["CCN(C(=O)c1cc(F)ccc1-c1cc(C2CN([C@@H](CN3CCN(C)CC3)C(C)C)C2)cc2c1cnn2C)C(C)C", 110]
]}

(P) CCN(C(=O)c1cc(F)ccc1-c1cc(C2CN([C@H](CCCN3CCN(C4CC4)CC3)C(C)C)C2)cn2c(C)ncc12)C(C)C
(Q) CCN(C(=O)c1cc(F)ccc1-c1cc(C2CN([C@H](CN3CCN(C(C)=O)CC3)C(C)C)C2)cn2c(C)ncc12)C(C)C
(R) CCN(C(=O)c1cc(F)ccc1-c1cc(C2CN([C@H](CCCN3CCN(C)[C@H](COC)C3)C(C)C)C2)cn2c(C)ncc12)C(C)C
Q: Rank by IC50 (largest to smallest). Your answer should be the labels, listed in the requested order.
Ans: Q, P, R
(Q: 19.5 nM, P: 3.1 nM, R: 1.1 nM)

(I) CCN(C(=O)c1cc(F)ccc1-c1cc(N2CCN(C(=O)C3NCCc4ccccc43)CC2)cn2c(C)nc(Cl)c12)C(C)C (stereo not shown)
(II) Cc1nc(F)c2c(-c3ccc(F)cc3C(=O)N3CCOC[C@H]3C)cc(C3CN(CC4CCOCC4)C3)cn12
Q: Of the pair I and II , name the member with the lesser recorded IC50. Indicate your choice by writing its label.
Ans: II
(II: 17.5 nM, I: 217 nM)

(1) Cc1nc(F)c2c(-c3ccc(F)cc3C(=O)N3CCOC[C@H]3C)cc(C3CN([C@@H](C)C4CCN(C(=O)C5(O)CC5)CC4)C3)cn12
(2) CCN(C(=O)c1cc(F)ccc1-c1cc(C2CN([C@@H](C)C3CCN(C(C)=O)CC3)C2)cn2c(C)nc(F)c12)C(C)C
(3) CCN(C(=O)c1cc(F)ccc1-c1cc(N2CCN(C(=O)[C@@H]3Cc4ccccc4CN3)CC2)cn2c(C)nc(Cl)c12)C(C)C
(4) CCN(C(=O)c1cc(F)ccc1-c1cc(C2CCN(CC3CCC(NS(=O)(=O)CC)CC3)C2)cn2c(C)nnc12)C(C)C (stereo not shown)
Q: Rank by IC50 (largest to smallest). Your answer should be the labels, listed in the requested order.
Ans: 4, 3, 1, 2
